Entries and their measured melting point follow.

Record excerpt, results attached:
{"compound": "On1c(C(F)(F)F)nc2c(OCc3ccccc3)cc(Br)cc21", "metric": "melting point", "measured-result": "211 to 214 °C"}
{"compound": "NC(=O)c1ncn2c1NCC=C2c1cccc(Cl)c1", "metric": "melting point", "measured-result": "182 to 184 °C"}
{"compound": "CCSC/C=C\\c1cc(F)c2ncc(C(=O)NCc3ccc(Cl)cc3)c(O)c2c1", "metric": "melting point", "measured-result": "203 to 205 °C"}
{"compound": "O=C1CSCC(=O)NCCOCCN1", "metric": "melting point", "measured-result": "186 to 188 °C"}
{"compound": "CN(C)CCNC(=O)c1cc(S(C)(=O)=O)c(Cl)cc1NCc1ccco1", "metric": "melting point", "measured-result": "102 to 105 °C"}

Data request: Specify measured melting point for CNC(=O)c1cccc(NC(=O)CC2CCCCC2)c1 .
Data returned: 183 °C

Data request: Provide melting point value for the following compound: CC(C)SC1NC(=O)C1NC(=O)COc1ccccc1 (configuration not stated)
Data returned: 128 to 130 °C
